These data points were gathered from patent US20250312468A1.

Consider the following compounds; for each one, report its Kd.
# SYSTEM NAME: CD33xMIC6
# MEASUREMENT PROTOCOL: SPR affinity of VHH clone (antibody fusion) to PROTACs
# APPLIED CONDITIONS: CD33xMIC6 immobilized, 25° C., read-out: KD [M] for antibody binding to PROTAC
Give bare numbers, in M.

Cc1ncsc1-c1ccc(CNC(=O)[C@@H]2C[C@@H](O)CN2C(=O)[C@@H](NC(=O)CCCCCCCCCCNC(=O)c2cc3c(cc2CS(C)(=O)=O)-c2cn(C)c(=O)c4[nH]cc(c24)CN3c2ncc(F)cc2F)C(C)(C)C)cc1: 4.1e-08

Could I get Kd for every one of these entries?
1. Cc1ncsc1-c1ccc([C@H](C)NC(=O)[C@@H]2C[C@@H](O)CN2C(=O)[C@@H](NC(=O)COCCCOCCNC(=O)C[C@@H]2N=C(c3ccc(Cl)cc3)c3c(sc(C)c3C)-n3c(C)nnc32)C(C)(C)C)cc1
2. CC(=O)N[C@H](C(=O)N1C[C@H](O)C[C@H]1C(=O)NCc1ccc(-c2scnc2C)cc1)C(C)(C)SCCCCCCNC(=O)C[C@@H]1N=C(c2ccc(Cl)cc2)c2c(sc(C)c2C)-n2c(C)nnc21
3. Cc1ncsc1-c1ccc(CNC(=O)[C@@H]2C[C@@H](O)CN2C(=O)[C@@H](NC(=O)C2(F)CC2)C(C)(C)C)c(OCCOc2ccc(CN3CCN(c4cc(-c5ccccc5O)nnc4N)CC3)cc2)c1

A:
5.3e-08
7.3e-09
6.5e-06

====

Consider the following molecules; for each one, report its Kd.
# SYSTEM NAME: CD33xMIC10
# MEASUREMENT PROTOCOL: SPR affinity of VHH clone (antibody fusion) to PROTACs
# APPLIED CONDITIONS: CD33xMIC10 immobilized, 25° C., read-out: KD [M] for antibody binding to PROTAC
One number for each entry, in M.

Guide cases for Kd, answers given:
Cc1ncsc1-c1ccc([C@H](C)NC(=O)[C@@H]2C[C@@H](O)CN2C(=O)[C@@H](NC(=O)COCCCOCCNC(=O)C[C@@H]2N=C(c3ccc(Cl)cc3)c3c(sc(C)c3C)-n3c(C)nnc32)C(C)(C)C)cc1: 1.4e-07
Cc1ncsc1-c1ccc(CNC(=O)[C@@H]2C[C@@H](O)CN2C(=O)[C@@H](NC(=O)CCCCCCCCCCNC(=O)c2cc3c(cc2CS(C)(=O)=O)-c2cn(C)c(=O)c4[nH]cc(c24)CN3c2ncc(F)cc2F)C(C)(C)C)cc1: 1.3e-08
CC(=O)N[C@H](C(=O)N1C[C@H](O)C[C@H]1C(=O)NCc1ccc(-c2scnc2C)cc1)C(C)(C)SCCCCCCNC(=O)C[C@@H]1N=C(c2ccc(Cl)cc2)c2c(sc(C)c2C)-n2c(C)nnc21: 2.4e-09

Q: # input molecule: Cc1ncsc1-c1ccc(CNC(=O)[C@@H]2C[C@@H](O)CN2C(=O)[C@@H](NC(=O)C2(F)CC2)C(C)(C)C)c(OCCOc2ccc(CN3CCN(c4cc(-c5ccccc5O)nnc4N)CC3)cc2)c1 ; wanted: its Kd
A: 8.5e-06

====

Consider the following compounds; for each one, report its log10(Kd).
# SYSTEM NAME: MIC2
# MEASUREMENT PROTOCOL: SPR binding of PROTACs to immobilized antibody MIC2
# APPLIED CONDITIONS: MIC2, 1:1 kinetic binding model
Field: value | Transform: log10 | Quantity: Kd | Unit: nM

Guide cases for log10(Kd), answers given:
CC(=O)N1c2ccc(-c3ccc(C(=O)NCCOCCOCCOCCOCC(=O)N[C@H](C(=O)N4C[C@H](O)C[C@H]4C(=O)NCc4ccc(-c5scnc5C)cc4)C(C)(C)C)cc3)cc2[C@H](Nc2ccc(Cl)cc2)C[C@@H]1C: -0.20
CCCOc1cccc(Oc2cc3c(cc2NS(=O)(=O)c2cccc(C(=O)NCCOCCOCCOCC(=O)N[C@H](C(=O)N4C[C@H](O)C[C@H]4C(=O)NCc4ccc(-c5scnc5C)cc4)C(C)(C)C)c2)n(C)c(=O)n3C)c1: -0.38
CC(=O)N[C@H](C(=O)N1C[C@H](O)C[C@H]1C(=O)NCc1ccc(-c2scnc2C)cc1)C(C)(C)SCCCCCCNC(=O)C[C@@H]1N=C(c2ccc(Cl)cc2)c2c(sc(C)c2C)-n2c(C)nnc21: 0.78
Cc1nc(Nc2ncc(C(=O)Nc3c(C)cccc3Cl)s2)cc(N2CCN(C(=O)CCCCCCC(=O)N[C@H](C(=O)N3C[C@H](O)C[C@H]3C(=O)NCc3ccc(-c4scnc4C)cc3)C(C)(C)C)CC2)n1: -0.39

In the following, a different compound is considered.
Q: # input compound: Cc1ncsc1-c1ccc(CNC(=O)[C@@H]2C[C@@H](O)CN2C(=O)[C@@H](NC(=O)CCCCCCCCCCNC(=O)c2cc3c(cc2CS(C)(=O)=O)-c2cn(C)c(=O)c4[nH]cc(c24)CN3c2ncc(F)cc2F)C(C)(C)C)cc1 ; wanted: its log10(Kd)
A: 0.28
